Assay: activators of NF-kB expression in neurons, primary screen, cell-based, HTS (AID 1239)
Conditions: human neuronal cells, NF-kB reporter expression; at 12.5 µM; stronger effect = higher value
Hit rate of the full screen: of about 190,000 compounds, about 3,100 (1.6%) were called active. This excerpt belongs to a sample that is enriched for actives.
# fold change annotations
OBSERVED_PROPERTY: fold change

> print(dat)
                                    molecule  reported
 1  Cc1ccc(NC(=O)c2cc(-c3ccc(C)o3)nc3ccccc23)nc1      0.88
 2                   Cc1csc(=Nc2ccccc2)n1CCO      1.05
 3  C/C(=N\N)c1c(-c2ccccc2)c2cc(Br)ccc2[nH]c1=O      0.98
 4      O=C(c1ccccc1)N1CCN(C(=O)N2CCCCC2)CC1       1.3
 5  Cc1nnc(SCCCCSc2nnc(C)c(=O)[nH]2)[nH]c1=O      1.03
 6  O=C(Nc1ccc(-c2nnc(-c3ccccc3)o2)cc1)C1CCCO1 (centres undefined)      4.06
 7  C/C(=N/OC(=O)c1c(-c2c(F)cccc2Cl)noc1C)c1cnccn1       1.2
 8          NC(N)=Nc1nc2ccc(Br)cc2c(=O)[nH]1      3.87
 9         O=C(COc1ccccc1[N+](=O)[O-])NC1CC1      1.17
10  OCC(O)CN(c1ccccc1)c1ccccc1 (centres undefined)      1.39
11  O=C(c1ccc(N2CCOCC2)c([N+](=O)[O-])c1)N1CCN(S(=O)(=O)c2cccs2)CC1      1.15
12  Cc1ccc(NC(=O)NC2CCCCC2)cc1S(=O)(=O)N1CCOCC1      1.06
13  O=C(Nc1nnc(CCc2ccccc2)s1)C1CCCO1 (centres undefined)      1.38
14  C=CCNC(=O)CC12CC3CC(C1)CC(CC(=O)NCC=C)(C3)C2      1.38
15    Cc1c(NC(=O)Nc2ccccc2)cccc1[N+](=O)[O-]      1.43
16               O=C(O)c1ccc(N=NN2CCOCC2)cc1       1.3
17        Cc1ccc(Nc2nc(-c3ccc(O)cc3O)cs2)nc1      5.35
18  O=C(Nc1cccc(-c2nnc(-c3ccccc3)o2)c1)C1CCCO1 (centres undefined)      0.88
19             Fc1ccccc1N=C1Nc2cccc3cccc1c23      0.99
20            Cc1ccc(C(=O)NNC(=O)c2cccs2)cc1      1.67
21  Cc1csc(NC(=O)NC2(C(F)(F)F)Oc3ccccc3O2)n1      5.29
22  COc1ccc(N2C(=O)C(Cc3ccccc3)NC2=S)cc1 (centres undefined)      1.19
23  NC(=O)C1CCN(Cc2nc3c(Br)cc(Br)cc3c(=O)[nH]2)CC1      1.47
24      Cc1ccc(-c2csc(NNC(=O)c3ccccc3)n2)cc1      0.64
